- System: RARb homodimer (NR concentration 270 nM)
- measurementDescription: PBM binding z-score (relative to random genomic background probes); higher = stronger binding; sequences stand for … in GC…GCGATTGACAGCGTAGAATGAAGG
Category key, based on recorded PBM binding z-score: small value: < 1; mid value: ≥ 1 and < 3; large value: ≥ 3

seq | labelValue
TTACCAAGGTGAAGATCGTTGATCCCTCTGTAGA | small value
GGAACGAGGGCAAAGTTGATGGCATCTGTCGACG | mid value
CGAACTAGGTCACCGGAAGGTCAAAGTCCGCATG | large value
CCTATTAGTTGACCAAAAGGGCAACCGAAGCTCG | large value

QUERY: Which of the defined bands does the recorded PBM binding z-score of "ACTCAAAGTTCATCTAGGTAACGTAAGATATGCT" sit within?
RESULT: large value

QUERY: In plain terms, what class is "CCTAGCAGGCCAATCCGGGTCACTCAAGGCTTGA" ?
RESULT: mid value

QUERY: For "TAGCCCAGGTCATTGGGCCAGTATAGTACGCATC" , which PBM binding z-score bin applies?
RESULT: mid value

QUERY: Classify this sequence: "AGTCAAAGTTCAGGCCGAGGTAACGTAAAGCACG"
RESULT: large value

QUERY: Band for the recorded PBM binding z-score of "GCAGACAGGGGAAACGCAGGTAACTCAGGGTGGC" ?
RESULT: small value

QUERY: Lab log: "CCTTACGGGGCACGAGGTTATAGCACGACGAGCG" — assign PBM binding z-score category
RESULT: mid value

QUERY: Textbook exercise: identify the category of the sequence given here, "TCATATAGGTAAAAGGTGAAGGTCGGTGTGGTAA" , according to its measured value.
RESULT: mid value

QUERY: Please report the category associated with "CGTCAAAGTTCAAATAAGGTAACGTAAAGCACGC" , nothing else.
RESULT: large value

###

- Tested on: PPARg:RXRa (NR concentration 180 nM, RXRa partner concentration 90 nM)
- measurementDescription: PBM binding z-score (relative to random genomic background probes); higher = stronger binding; sequences stand for … in GC…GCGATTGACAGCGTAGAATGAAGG
measuredEndpoint: PBM binding z-score
Enter the number alone.

Example entries and their recorded answers appear below.
seq | PBM binding z-score
CCTAGTTGGCCAGGAGGTCACACACCGGATATGA | 2.42
ACGATTAGTTGAGACGAGGGCAACCGATAGGTTG | 0.533
CCTAGTTGGTCAGGAGGTCACACAACGGATATGA | 3.47
CAAACTAGGTCACAGAGCTCAAAGTCCGTGCGTA | 8.88
CAACCTAGGTCACAGAGGTCAAAGTCCGTGCGTA | 7.27
CGTCCAAGGTCAATGCTAGGTCATTGAAAGCATT | 4.04
GCTAGCAGGCCATTTGGGTCACGCAATGACGGGC | 1.32
ATATGTAGGTTAGCTGGGGTCATGCAGACTAGGC | 6.19

QUERY: # PBM binding z-score lookup, item "TCATATAGGTAAAGTTGAAAGTCGAACGATATGA"
RESULT: 1.9

QUERY: Bench note: what PBM binding z-score did "AGTCAAAGTTCATCTAGGTAAAGTAAGATATGCT" show?
RESULT: 7.07

QUERY: I'd like to know its PBM binding z-score. The sequence in question is "CCTCGGAGGACAACAGAAGGTCAGAGCTGCCAGA"
RESULT: 0.435

QUERY: Please look up its PBM binding z-score: "AGAGACAGGTGATGAAGGTAACTCAGGCTATCAT"
RESULT: 0.629

QUERY: Given the entry "CTAGACAGGTGAAAGGTAACTCAGTCTGGTACGC" , report its measured PBM binding z-score.
RESULT: 6.11
